Reported percent inhibition of PKK at 0.37 μM values for a set of substances
Tested on: human PKK mRNA
assay name: Dose-dependent antisense inhibition of human PKK in HepaRG cells, 0.12-10.00 uM (Example 4)
Format: cell-based
condition label: Table 33, 0.37 μM, electroporation, ~16 h
Strand notation (5' to 3'): a small letter for the sugar, then the base; units joined by * are phosphorothioate-linked, units joined directly phosphodiester-linked; [ ] holds rarer units or linkages, { } end groups; capitals alone tell only the bases. e = 2'-O-(2-methoxyethyl) (MOE); [5mC] = 5-methylcytosine; d = 2'-deoxy (DNA)
Field format: number, assumed %, no unit text.

531055 (antisense e[5mC]*e[5mC]*e[5mC]*eT*eT*d[5mC]*dT*dT*dT*dA*dT*dA*dG*d[5mC]*d[5mC]*eA*eG*e[5mC]*eA*e[5mC]) [compound 531055] :: 28
531121 (antisense eT*eT*eG*eG*eT*d[5mC]*dT*dA*d[5mC]*dA*dG*dA*dT*dT*d[5mC]*eA*eA*eT*eG*e[5mC]) [compound 531121] :: 13
531231 (eT*eA*eT*e[5mC]*eA*d[5mC]*dT*dG*dT*dA*d[5mC]*dT*dA*dG*dT*eT*eT*e[5mC]*e[5mC]*eT) [compound 531231] :: 0
531198 (eG*eG*eG*eA*eT*dT*dT*dT*dG*d[5mC]*dT*dG*dA*dA*dG*e[5mC]*eT*eG*eG*eT; antisense) [compound 531198] :: 35

Under human PKK mRNA, report percent inhibition of PKK at 0.37 μM for 531232 (e[5mC]*eT*eG*eT*eA*d[5mC]*dT*dA*dG*dT*dT*dT*d[5mC]*d[5mC]*dT*eA*eT*eA*eA*e[5mC]; antisense) [compound 531232]
26
